Data provenance is the supplement of paper PMC10567573.

Reported protein stability index values for a set of variants
B1: ANKRD40 (parent)
chain: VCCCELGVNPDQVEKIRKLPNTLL

# Variants of: B1
# experimentalDetails: protein stability index of a GFP-peptide fusion (GPS, HEK-293T) (PSI 1-6); higher = more stable;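 note: lentivirally expressed fusions sorted by FACS into six bins by GFP to DsRed ratio, PSI derived from sequencing read proportions per bin multiplied by bin number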
# measurementSetup: c terminus: a fixed tail appended

>  <var>
T22R

>  <protein stability index>
2.02

$$$$
>  <var>
E5R

>  <protein stability index>
1.47

$$$$
>  <var>
L23P

>  <protein stability index>
2.75

$$$$
>  <var>
K15N

>  <protein stability index>
1.94

$$$$
>  <var>
L24K

>  <protein stability index>
2.09

$$$$
>  <var>
L19M

>  <protein stability index>
2.1

$$$$
>  <var>
E5A

>  <protein stability index>
1.84

$$$$
>  <var>
P20V

>  <protein stability index>
1.82

$$$$
>  <var>
L6Q

>  <protein stability index>
3.27

$$$$
>  <var>
K15I

>  <protein stability index>
1.39

$$$$
>  <var>
L23T

>  <protein stability index>
2.33

$$$$
>  <var>
E14Y

>  <protein stability index>
2.09

$$$$
>  <var>
K15R

>  <protein stability index>
2.21

$$$$
>  <var>
E14K

>  <protein stability index>
1.48

$$$$
>  <var>
K18N

>  <protein stability index>
1.64

$$$$
